These data points were gathered from ChEMBL document CHEMBL5291721.

TARGET UNDER TEST: 5-hydroxytryptamine receptor 2B (Homo sapiens, UniProt P41595); note: assay procedure not described here
Sequence (P41595 whole entry): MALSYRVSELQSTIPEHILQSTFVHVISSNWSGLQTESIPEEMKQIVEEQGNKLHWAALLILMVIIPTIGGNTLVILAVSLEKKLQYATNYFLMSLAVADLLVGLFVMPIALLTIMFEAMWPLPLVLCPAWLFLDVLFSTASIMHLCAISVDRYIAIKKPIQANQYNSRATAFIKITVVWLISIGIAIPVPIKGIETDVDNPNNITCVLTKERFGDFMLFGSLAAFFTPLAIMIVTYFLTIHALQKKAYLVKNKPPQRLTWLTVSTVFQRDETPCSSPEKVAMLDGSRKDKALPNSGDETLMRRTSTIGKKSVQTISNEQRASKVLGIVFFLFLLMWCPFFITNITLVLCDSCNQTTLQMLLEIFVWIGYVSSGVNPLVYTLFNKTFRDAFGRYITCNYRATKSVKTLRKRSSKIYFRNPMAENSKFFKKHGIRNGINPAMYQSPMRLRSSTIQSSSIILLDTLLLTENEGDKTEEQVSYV
Format: functional, cell-based
REPORTED METRIC: AC50

Worked examples, 6 compounds total:
1. CNS(=O)(=O)Cc1ccc2[nH]cc(CCN(C)C)c2c1 ... 13 µM
2. COc1cccc(C2(O)CCCCC2CN(C)C)c1 (stereo not given) ... > 10 µM
3. CCOC(=O)[N-]c1cn(N2CCOCC2)n[o+]1 ... > 30 µM
4. Nc1nc(N)nc(-c2cc(Cl)ccc2Cl)n1 ... > 30 µM
5. CC(C)(C)C(=O)Oc1ccc(S(=O)(=O)Nc2ccccc2C(=O)NCC(=O)O)cc1 ... > 30 µM
6. O=C(O)CCCCCCNC1c2ccccc2CCc2ccccc21 ... > 30 µM

Record AC50 for all entries; do not skip any.
1. CNC1Cc2ccccc2N(C)c2ccccc21 (stereo not given)
2. Nc1nc(Cl)nc2c1ncn2[C@H]1C[C@H](O)[C@@H](CO)O1
3. O=C(O)/C=C/c1ccc(Cn2ccnc2)cc1
4. C[C@]12CCC(=O)C=C1CC[C@@H]1[C@@H]2[C@@H](O)C[C@@]2(C)[C@H]1CC[C@]2(O)C(=O)CO [HYDROCORTISONE]

["0.95 µM", "> 30 µM", "> 30 µM", "> 10 µM"]
